- experimentalTarget: UniProt P29274
- Sequence (P29274 whole entry): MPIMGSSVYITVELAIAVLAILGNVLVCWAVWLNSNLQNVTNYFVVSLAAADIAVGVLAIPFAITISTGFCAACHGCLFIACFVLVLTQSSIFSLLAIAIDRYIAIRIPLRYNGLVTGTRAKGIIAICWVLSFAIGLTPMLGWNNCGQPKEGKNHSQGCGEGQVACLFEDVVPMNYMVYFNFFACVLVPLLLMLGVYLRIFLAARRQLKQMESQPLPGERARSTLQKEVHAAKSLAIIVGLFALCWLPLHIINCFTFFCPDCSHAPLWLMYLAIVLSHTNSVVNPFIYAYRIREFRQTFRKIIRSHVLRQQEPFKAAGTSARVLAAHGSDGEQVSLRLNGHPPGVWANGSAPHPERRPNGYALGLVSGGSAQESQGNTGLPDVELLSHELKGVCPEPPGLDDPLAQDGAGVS
Overview of recorded Ki for various molecules

Example molecules with recorded Ki:
| molecule | Ki |
| --- | --- |
| Nc1nc2c(cnn2CCN2CCN(c3ccc(OCC(=O)O)cc3)CC2)c2nc(-c3ccco3)nn12 | 1.4 nM |
| COCCOc1ccc(N2CCN(CCn3ncc4c3nc(N)n3nc(C(O)CCC(=O)O)nc43)CC2)cc1 (stereo not drawn) | > 1000 nM |

Query block: Any idea what Ki was measured for Nc1nc2c(cnn2CC(=O)O)c2nc(-c3ccco3)nn12 ?
Result block: > 1000 nM
